Reference source for all entries: PubChem BioAssay (NCI)

Below is a list of entries, each paired with its recorded growth value.
Tested on: KM12 colon
Assay Overview: NCI-60 one-dose screen, 48 h (100 = growth as untreated, 0 = no growth, -100 = all killed)
Recorded Conditions: 10 µM unless noted
This is part of a sample that, as a whole, favours compounds with a hit. Of some 83,000 tested, about 20% had one in any assay.
Property Label: growth (%)

In [3]: df
Out[3]:
                                   compound  value_reported
0     Cc1ccc(-c2cc3nc(C(Cl)Cl)nc(C)n3n2)cc1            99.1
1  Cc1ccc2c(c1)Oc1nc(N)c(C#N)c(N)c1C2Sc1ccc(F)cc1 (centres undefined)           -91.4
2  Oc1cccc2ccc(-c3nnc(SCc4ccc(O)c5ncccc45)n3-c3ccccc3)nc12            10.9
3  C=C(C)[C@@H]1CC[C@]2(COC)CC[C@]3(C)[C@H](CC[C@@H]4[C@@]5(C)CCCNC(C)(C)[C@@H]5CC[C@]43C)[C@@H]12            38.1
4  O=C(Nc1ccc(N=Cc2c(O)[nH]c3ccccc23)cc1)Nc1nccs1            59.2
5  COc1cc(-c2ccc3ncnc(NCc4ccccc4)c3c2)cnc1OC            95.2
6  CN1CCN(Cc2ccc(NC(=O)c3cncc(C#Cc4cnc5ccc(N6CCN(C)CC6)nn45)c3)cc2C(F)(F)F)CC1           -78.8
7  O=C1[C@H]2Cc3c([nH]c4ccccc34)[C@@H](c3ccc(Cl)cc3)N2C(=O)CN1C1CCN(Cc2ccccc2)CC1            47.7
8  Nc1cc(F)ccc1NC(=O)c1ccc(NC(=O)C/C=C/c2cccnc2)cc1            41.5
